Documented T/C across a set of molecules
- Test system: P388 leukemia ip, CD2F1 mice, survival T/C
- test name: NCI In Vivo Anticancer Drug Screen. Data for tumor model P388 Leukemia (intraperitoneal) in CD2F1 (CDF1) mice
- conditions used: endpoint: median survival time; dose: 3.12 mg/kg/injection; schedule: Q01DX009 (ip); vehicle: saline; higher = longer survival
Toxic doses and inconclusive results are not listed.
assay readout: T/C

chem smiles | value observed
O=C1C(F)=C(N2CC2)C(=O)C(F)=C1N1CC1 | 114 % of control
CCC[CH2][Sn]([CH2]CCC)([N]=C=S)[N]=C=S | 100 % of control
CC1=C(C)SC(=S)NN1 | 96 % of control
CCC[N+]1(CC)CCCCC1 | 103 % of control
